B1: tRNA (parent)
chain: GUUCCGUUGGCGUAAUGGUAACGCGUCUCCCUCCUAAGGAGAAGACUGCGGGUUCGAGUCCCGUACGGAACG

Variants of: B1
procedure.text: yeast fitness relative to wild type (ratio to wild type); higher = fitter; tRNA-Arg(CCU), competitive growth, 37 C, YPD
Fewer inactive variants are shown than the library holds.
readout: yeast fitness

sequence_data="GUUCCGUCGGCGUAAUGGUAACGCGUCUCCCCCCUAAGGAGAAGAGUGCGGGUUCGAGUCCCGUACCGAACG [U8C U32C C46G G67C]" value_observed="≤ 0.5"
sequence_data="GGUCCGUUGGCGUAACGGUAACGCGUCUCCCUCCUAAGGAGAAGACUGCGGGUUCGAGUCCCGUACGGAACG [U2G U16C]" value_observed=0.969
sequence_data="GUUCCGUUGGCGGAAUGGUAACGCGUCACACUCCUAAGGAGAAGACUGCGGGUUCGAGUCCCGUACGGAACG [U13G U28A C30A]" value_observed="≤ 0.5"
sequence_data="GUUCCGUUGGCGUAAUGGUAACGCGUCUCCCUCCUAAGGAGAAGACUGCGGCUUCCAGUCCCGUACGGAACG [G52C G56C]" value_observed="≤ 0.5"
sequence_data="GUUCCGUUGGCGUAAUGGUGACGCGUCUCCCUCCUAAGGAGAAGAUUGCCGGUUCGAGUCACGUACGGAACG [A20G C46U G50C C61A]" value_observed=0.572
sequence_data="GUUCCGUUGGCGUAAUGCUAACGGGUCUCCCUCCUAAGGAGAAGAGUGCGGGUUCGAGUCCCGUACGGAACG [G18C C24G C46G]" value_observed="≤ 0.5"
sequence_data="GUUCUGUUGGCGUAAUGGUAACGCGUUUCCCUCCUAAGGAAAAGACUGCGGGUUCGAGUCCCGUACGGAACG [C5U C27U G41A]" value_observed=0.573
sequence_data="GUUCCGUUGGCGUCAUGGUAACGCGUCUCCCUCCUAAGGAGUAGACUGCGGGUUCGAGUGCCGUACGGAGCG [A14C A42U C60G A70G]" value_observed="≤ 0.5"
sequence_data="GUUCCGUUGGCGUAAUGGUAACGCGUCUCCCUCCUAAGGAGAAGACUGCGGGUUCGAGUCCCGCACGGAUCG [U64C A70U]" value_observed=0.953
sequence_data="GUGCCGUUGGGGUAAUGGUAACGCGUCUCCCUCUUAAGGAGAAGACUGCGGGUUUGAGUCCCGUACGGAACG [U3G C11G C34U C55U]" value_observed="≤ 0.5"
sequence_data="GUUCUGUUGGCGUAAUGGUAACGUGUCUCCCUCCUAAGGAGAAGACUGCGGGUUCCAGUCCCGUACGGAACG [C5U C24U G56C]" value_observed=0.53
sequence_data="GUUCCGUUGGAGUAAUAGUAACGCGUCUCCCUUCUAAGGAGAAGACUGCGGGUUCGAGUCCCGUACGGAACG [C11A G17A C33U]" value_observed="≤ 0.5"
sequence_data="GUUCCGUUGGCGUAAUGGUAACGCGUAUCCCUCCUAAAGAGAAGACUGCGGGUUCGAGUCCCGUACGGAACG [C27A G38A]" value_observed=0.798
sequence_data="GUUCCGUUGGCGUGAUGGUAACGCGUCUCCCUCUUAAGGAGAAGACUGCGGAUUCGAGUCCCGUAUGGAUCG [A14G C34U G52A C66U A70U]" value_observed="≤ 0.5"
sequence_data="GUUCCGAUGGCGUAAUGGUAACGCGUCUCCCUCUUAAGGAGAAGACUGCGGGUUCGAGUCCCGUGGGGAACG [U7A C34U A65G C66G]" value_observed="≤ 0.5"
sequence_data="GUUCCGUUGGCGUAAUGGUAGCACGUGUCCCUCCUAUGGAGAAAACUGUGGGUUCGAGUCCCCUACGGAACG [A21G G23A C27G A37U G44A C49U G63C]" value_observed="≤ 0.5"
sequence_data="GUUCCGUUGACGUAAUGGUAACGCGUCUCCCUUCUAAGGAGAAGACUGCAGGUUCGAGUCCCGUACGGAACG [G10A C33U G50A]" value_observed="≤ 0.5"
sequence_data="GUUCCGUUGGCGUAAUGGUAACGCGUCUCACUCCUAAGGAGAAGACUGCGCGUUCGAGUCCGGUACGGAACG [C30A G51C C62G]" value_observed="≤ 0.5"
sequence_data="GUUCCGUUGGCGUAAUGGGAACGCGUCUACCUCCUAAGGAGAAGACUGCGGGUUCGAGUCCCGUACGGUACG [U19G C29A A69U]" value_observed="≤ 0.5"
